B1: DUSP5 (parent)
chain: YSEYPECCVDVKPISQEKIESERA

Variants of: B1
Assay: protein stability index of a GFP-peptide fusion (GPS, HEK-293T) (PSI 1-6); higher = more stable;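 further: lentivirally expressed fusions sorted by FACS into six bins by GFP to DsRed ratio, PSI derived from sequencing read proportions per bin multiplied by bin number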
Settings: c terminus: a fixed tail appended
This section presents variants with their documented protein stability index values.

mutation label: D10T
protein stability index: 2.85

mutation label: E17M
protein stability index: 2.53

mutation label: Y4A
protein stability index: 5.66

mutation label: P5C
protein stability index: 4.34

mutation label: P5M
protein stability index: 3.98

mutation label: I19G
protein stability index: 4.34

mutation label: K12S
protein stability index: 3.02

mutation label: P13L
protein stability index: 3.22

mutation label: C8T
protein stability index: 5.41

mutation label: K18I
protein stability index: 4.02

mutation label: Q16R
protein stability index: 4.34

mutation label: E20W
protein stability index: 2.04

mutation label: I19A
protein stability index: 4.65

mutation label: S2E
protein stability index: 5.79

mutation label: V9C
protein stability index: 4.12

mutation label: E20R
protein stability index: 3.56

mutation label: A24N
protein stability index: 4.1

mutation label: E22C
protein stability index: 3.51

mutation label: E22F
protein stability index: 3.6

mutation label: E20C
protein stability index: 4.31

mutation label: E22N
protein stability index: 3.59

mutation label: E22A
protein stability index: 4.36

mutation label: E17C
protein stability index: 3.01

mutation label: E6C
protein stability index: 2.6

mutation label: D10H
protein stability index: 3.15

mutation label: E6Y
protein stability index: 1.44

mutation label: K18Q
protein stability index: 4.87

mutation label: P13D
protein stability index: 4.47

mutation label: E3K
protein stability index: 4.53

mutation label: A24D
protein stability index: 4.45

mutation label: Q16S
protein stability index: 3.85

mutation label: I14H
protein stability index: 4.29

mutation label: Y1I
protein stability index: 4.87

mutation label: E3G
protein stability index: 4.27

mutation label: Y4F
protein stability index: 4.06

mutation label: R23F
protein stability index: 3.73

mutation label: R23W
protein stability index: 3.41

mutation label: S2G
protein stability index: 5.11

mutation label: S15Q
protein stability index: 4.05

mutation label: E17V
protein stability index: 2.86

mutation label: V11Q
protein stability index: 5

mutation label: E17R
protein stability index: 2.95

mutation label: E17S
protein stability index: 3.06

mutation label: E22P
protein stability index: 3.45

mutation label: K18A
protein stability index: 4.17

mutation label: E3L
protein stability index: 4.24
